Just for reference, patent US20230192890A1 is where these values come from.

target: T1, Ala mutant SEQ ID NO: 40 (human); assay: ELISA, peptide on plate (10 ug/mL)
T1 sequence (peptide): EENMDDQWMQDEMAIGY
Listing of recorded absorbance 490 nm/630 nm by entry.
Unit OD implied. Number only.

A11 (antibody, IgG1, V domains shown) VH: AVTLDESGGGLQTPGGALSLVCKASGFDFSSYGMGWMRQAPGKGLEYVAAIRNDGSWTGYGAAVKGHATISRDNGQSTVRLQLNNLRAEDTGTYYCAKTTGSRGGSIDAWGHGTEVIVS VL: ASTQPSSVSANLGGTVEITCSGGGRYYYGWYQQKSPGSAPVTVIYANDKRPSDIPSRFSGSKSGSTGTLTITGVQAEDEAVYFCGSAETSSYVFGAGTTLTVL : 1.85

INPUT: Quick one: absorbance 490 nm/630 nm of G8 (antibody, IgG1, V domains shown) VH: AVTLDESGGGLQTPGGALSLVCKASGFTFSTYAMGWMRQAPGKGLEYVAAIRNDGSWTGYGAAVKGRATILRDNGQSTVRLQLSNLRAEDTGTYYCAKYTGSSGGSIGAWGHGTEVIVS VL: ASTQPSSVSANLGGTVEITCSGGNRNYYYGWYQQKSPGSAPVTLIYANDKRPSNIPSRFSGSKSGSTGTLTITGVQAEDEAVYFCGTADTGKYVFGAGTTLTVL ?
OUTPUT: 1.89

INPUT: Quick one: absorbance 490 nm/630 nm of H7 (antibody, IgG1, V domains shown) VH: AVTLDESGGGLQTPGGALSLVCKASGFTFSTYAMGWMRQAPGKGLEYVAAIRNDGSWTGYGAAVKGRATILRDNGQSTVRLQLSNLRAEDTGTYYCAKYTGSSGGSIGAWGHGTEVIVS VL: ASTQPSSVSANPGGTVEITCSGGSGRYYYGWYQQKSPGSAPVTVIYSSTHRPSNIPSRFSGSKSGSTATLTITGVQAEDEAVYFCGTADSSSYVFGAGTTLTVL ?
OUTPUT: 1.86
